Source listed as patent US20110059095A1.

# SUBJECT OF TEST: T1, Peptide A (human PAR-2), unbiotinylated (Human)
# T1 construct: also called Peptide A No Biotin
# T1 peptide: GTNRSSKGRSLIGKVDGT
# MEASUREMENT DESCRIPTION: SPR, antibody captured
ENDPOINT: Kd

# lookup: Kd of H4H585P (antibody, human IgG4, V domains shown, also called H1H585P variable regions) VH: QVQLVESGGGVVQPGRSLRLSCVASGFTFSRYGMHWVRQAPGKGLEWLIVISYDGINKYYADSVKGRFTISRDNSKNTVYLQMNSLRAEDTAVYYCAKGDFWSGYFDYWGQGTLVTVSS VL: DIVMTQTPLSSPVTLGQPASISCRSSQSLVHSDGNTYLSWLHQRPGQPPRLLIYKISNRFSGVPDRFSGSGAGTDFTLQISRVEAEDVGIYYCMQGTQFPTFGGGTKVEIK
8.78 nM

# input binder: H4H581P (antibody, human IgG4, V domains shown, also called mAb H4H581P; H1H581P variable regions) VH: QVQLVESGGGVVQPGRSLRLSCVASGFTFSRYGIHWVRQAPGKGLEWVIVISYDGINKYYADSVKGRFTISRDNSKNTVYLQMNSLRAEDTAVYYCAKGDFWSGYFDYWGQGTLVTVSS VL: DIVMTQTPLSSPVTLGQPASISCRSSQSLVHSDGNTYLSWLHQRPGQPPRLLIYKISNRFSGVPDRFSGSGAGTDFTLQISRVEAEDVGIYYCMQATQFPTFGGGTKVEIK ; wanted: its Kd
9.44 nM

Requested field: Kd. Item: H4H588N (antibody, human IgG4, V domains shown, also called H2M588N variable regions) VH: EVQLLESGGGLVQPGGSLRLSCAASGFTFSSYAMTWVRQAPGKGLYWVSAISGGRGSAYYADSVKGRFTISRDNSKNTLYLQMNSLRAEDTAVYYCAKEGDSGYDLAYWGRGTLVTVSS VL: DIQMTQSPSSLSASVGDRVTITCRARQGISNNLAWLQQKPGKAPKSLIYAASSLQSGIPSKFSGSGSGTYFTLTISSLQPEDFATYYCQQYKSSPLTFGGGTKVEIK
4.95 nM

Dear colleague, I am looking for the recorded Kd of the following binder: H4H584P (antibody, human IgG4, V domains shown, also called H1H584P variable regions) VH: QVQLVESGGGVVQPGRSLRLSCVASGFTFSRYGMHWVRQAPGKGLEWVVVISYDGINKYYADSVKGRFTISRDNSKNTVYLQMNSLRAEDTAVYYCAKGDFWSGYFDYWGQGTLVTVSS VL: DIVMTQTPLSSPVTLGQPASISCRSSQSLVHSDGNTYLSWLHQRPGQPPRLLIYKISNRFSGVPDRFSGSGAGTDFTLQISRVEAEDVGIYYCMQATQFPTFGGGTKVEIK
22 nM

Quick check: Kd of H4H579P (antibody, human IgG4, V domains shown, also called H1H579P variable regions) VH: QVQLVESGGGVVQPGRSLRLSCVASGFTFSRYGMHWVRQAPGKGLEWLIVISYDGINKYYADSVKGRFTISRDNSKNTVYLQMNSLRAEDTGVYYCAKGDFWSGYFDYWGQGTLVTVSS VL: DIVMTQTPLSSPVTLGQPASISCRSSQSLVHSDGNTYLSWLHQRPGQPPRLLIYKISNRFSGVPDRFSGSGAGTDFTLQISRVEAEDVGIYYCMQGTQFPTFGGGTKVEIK ?
15 nM

Query: Kd; subject: H4H583P (antibody, human IgG4, V domains shown, also called H1H583P variable regions) VH: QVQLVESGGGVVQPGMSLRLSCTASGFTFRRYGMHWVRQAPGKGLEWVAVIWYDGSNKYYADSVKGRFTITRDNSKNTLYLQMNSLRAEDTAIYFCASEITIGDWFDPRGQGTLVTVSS VL: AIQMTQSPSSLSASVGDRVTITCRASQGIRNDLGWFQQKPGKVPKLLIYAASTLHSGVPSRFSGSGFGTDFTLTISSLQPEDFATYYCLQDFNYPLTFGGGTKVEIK
37.1 nM
